Reference source: the supplement of paper PMC9170038

system: MS2 coat protein; experiment: apparent KD of MS2 coat protein; higher = weaker reporter binding; details: Eterna round: R107; input ligand: arginine 13.2 mM
Observable: apparent KD of MS2 coat protein (µM)

| Ordered residues | Observable | Assay result |
| --- | --- | --- |
| GGGUACAUCGCGGCCGCCACUCAUGUAAAUGCAUGAGGAACACCCAUGCCGAUGGAGACAUCGGAGAGGACCGGGUGAUGUACCG | apparent KD of MS2 coat protein | 0.066 |
| AUACAUGAGGAUCACCCAUGUGAUGGCCGGCGAGGACCGGUACGGCCGCCACUCGUGAUCCGUCCUGAAAGCAAAGCUCUCAACA [Esraleri] | apparent KD of MS2 coat protein | 0.095 |
| GGGUCCGUCGGAAGGAGCGACAUGAGGAUCACCCAUGUCUCCCGUUAUGGGAGUUCUUUAGGUCAGGUAGGUCGCCGGCGGGUCC [#1 Exclusion - Arginine B Attempt #13 (Inspired by Omei)] | apparent KD of MS2 coat protein | 0.065 |
| AUAAUAAGGUGAUCCUAAGUCGUACCGUAACGAGGACCGGUACGGCCGCCACUCGAACAUGAGGAUCACCCAUGUAUGUACGACA [M'-T'-T-MS2-T'' - Design 6] | apparent KD of MS2 coat protein | 0.0281 |
| AGAUGAGUCACGGCCGCCACUCACUACAGGUUCACCCUUGGUUAACAUGAGGAUCACCCAUGUGGGAGGACCGGGUGAUGAGCAU [XTryp B #4] | apparent KD of MS2 coat protein | 0.0185 |
| CGAGUAAGAACAAUCGAAUAACGGUUUUCGCGAGGACCGGUACGGCCGCCACUCGUGUGAUAUAACACAUGAGGAUCACCCAUGU [3'end-1] | apparent KD of MS2 coat protein | 0.0253 |
| GCUAGGUCUACGGCCGCCACUAGACGUGGGUAAGACAUGAGGAUCACCCAUGUACUACAGGCGGAUAGGACCGGGUAGACCUAGC [SSTB NP+V+V2 #13 +-Same Structure] | apparent KD of MS2 coat protein | 0.0693 |
| AUAUAUAUGCGAAGGAGCGGGAAAUAUAUAUAUAUAAUCCUAACAUGAGGAUCACCCAUGUCCCAGGUAGGUCGCGCAUAUAUAU [12.A] | apparent KD of MS2 coat protein | 0.0682 |
| ACAUGAGGAUCACCCAUGUGUGUAAAUCCUCGAGGACCGGUACGGCCGCCACUCGAACGAGUGUAAGAUGAAUGUUACAUUCAUC [SS Trp A s2] | apparent KD of MS2 coat protein | 0.0708 |
| GGAUAGGACAGAAGGAGCGACAUGGCGACGAAAGUCGAAACUUCACAUGAGGAUCACCCAUGUCAGGUAGGUCGCUGUCCUAUCG [ArgXB 7 #MS2Gate #StaticStem] | apparent KD of MS2 coat protein | 0.0488 |
| AGGACGGUCGGAAGGAGCGGUACAUGAGGAUCACCCAUGUACUCCUGGGCAUCCGUAGUGUGCCAGGUAGGUCGCCGAUUGCGGG [XArg-B8] | apparent KD of MS2 coat protein | 0.0121 |
| CAUUAAUUACGAAGGAGCGUCGAGAAUGGGUAAACAUGAGGAUCACCCAUGUGAAGGGAACGGCAGGUAGGUCGCGUAAUUAAUG [#22 Same State - Arginine B] | apparent KD of MS2 coat protein | 0.105 |
| UUUACAUGAGGAUCACCCAUGUGCCAUGAUACCAGACAUGAAAAUGUCCCUUGGCAGCAUGAAUAAUCCUCGUCGGGAAACCGAC [Lisen] | apparent KD of MS2 coat protein | 0.11 |
| ACUCGGUAUGUCUAAUACCGAGAGUAUGAUACCAGUAUGGUGACAUACCCUUGGCAGCAUGGGACAUGAGGAUCACCCAUGUGUU [SSThA NP+V+V2 #10 Same Structure] | apparent KD of MS2 coat protein | 0.119 |
| AAAAUAAAUAAAACACGUAACAUGAAGGAUACCAGCCAGAAAACUGGCCCUUGGCAGCCUCUACAUGAGGAUCACCCAUGUCGUG [Mat - Same State Theophlline A - Mod of Eli - D16] | apparent KD of MS2 coat protein | 0.156 |
| ACCUACACGGAGACGUGUAGGAGUAAUGAUACCAGCAUGGAGACAUGCCCUUGGCAGCGUUACAUGAGGAUCACCCAUGUAGUGC [ETHA #5] | apparent KD of MS2 coat protein | 0.0104 |
| AAUUAAUUAACCGAUACCAGCCAACCAAAACAUGAGGAUCACCCAUGUAAGAAGAAGGGUGGCCCUUGGCAGCGGUUAAUUAAUU | apparent KD of MS2 coat protein | 0.0314 |
| AUAUUUAACGGAAGGAGCGCGGAAUAAUAAGUGGGUAAACAUGAGGAUCACCCAUGUAAACCGCAGGUAGGUCGCCGAAUAAUAA [AstrosEXyARgB#4] | apparent KD of MS2 coat protein | 0.071 |
| CUGUGUCCUUCGGCCGCCACUACAUGAGGAUCACCCAUGUCGUUACGGCUCCCAAUGACGCUUUGUAGGACCGGGAAGGAGUAUG [Tienancebe] | apparent KD of MS2 coat protein | 0.00927 |
| AUCGUACCUGGUGAUACCAGCAAUUGCUCGUGACAUGAGGAUCACCCAUGUGACCAGUGAUGCCCUUGGCAGCAUGGUCGGUGCA [Same State - Theophylline B (Freestyle 23)] | apparent KD of MS2 coat protein | 0.0368 |
| AAAAUAUACGGAAGGAGCGUGUAAGAUUAAGAACAUGAGGAUCACCCAUGUUUUAAGGGAACACAGGUAGGUCGCCGUAUAUAAA [11.N] | apparent KD of MS2 coat protein | 0.0129 |
| UCUAACAUGAGGAUCACCCAUGUGGGUUAUCGAGGACCGGUACGGCCGCCACUCGACCAGUAUAACUGGCUAGAACGUAUUUGAU [theeternabot_sameState_MS2_Trp_A_34] | apparent KD of MS2 coat protein | 0.0312 |
| UAUUUUGUGAUGGAUACCAGCAGAGAAAACGUUUAUCCUAACAUGAGGAUCACCCAUGUAUGCCCUUGGCAGCUGUUGUGGGAUA [8.Q] | apparent KD of MS2 coat protein | 0.0249 |
